Assay: Single dose oral and intravenous PK in CD-1 mice (mesylate salt), blood
Type: in vivo
Parameters: unit not given here
Conditions: male, CD-1, mouse, whole blood; oral 5 mg/kg
Experimental: These studies analyzed the PK profile of Compound 1 following a single oral gavage or single intravenous dose to CD-1 mice. Compound 1 (mesylate salt) was administered to four groups of male mice (n=4/group) as a single oral (po) gavage administration at dose levels of 5, 10, 20, and 50 mg/kg/adm or as single intravenous (IV) dose at 5 and 50 mg/kg/adm. The vehicle was 1% methylcellulose with 0.1% Tween-80 in study AMP800 and 5% dextrose in water in study AMP799. […]

{"compound": "CC(C)C[C@@H]1NCCN([C@@H](CC(C)C)C(=O)N2CCC3(C[C@@H]2C)OCC(CN2CCCC2)CO3)C1=O (stereo partly shown)", "AUC(0-inf)": 0.246}

---

Experiment: 28-day once weekly oral repeated-dose DRF TK study in Beagle dogs (mesylate salt), plasma
Format: in vivo
Settings: both sexes, Beagle, dog, plasma, po, 10 mg/kg, 10 mg/kg weekly, Day 1

{"molecule": "CC(C)C[C@@H]1NCCN([C@@H](CC(C)C)C(=O)N2CCC3(C[C@@H]2C)OCC(CN2CCCC2)CO3)C1=O (stereo partly shown) [Compound 1]", "Cmax": "536 ng/mL"}

---

Test: 14-day daily oral repeated-dose DRF study in cynomolgus monkeys (mesylate salt)
Assay type: in vivo
Details: both sexes, cynomolgus monkey, plasma, po, 8 mg/kg, 8 mg/kg (Gr. 4), Day 5

{"molecule": "CC(C)C[C@@H]1NCCN([C@@H](CC(C)C)C(=O)N2CCC3(C[C@@H]2C)OCC(CN2CCCC2)CO3)C1=O (stereo partly shown) [Compound 1]", "output-unit": "h", "Tmax": 1.5}

---

Assay: Single dose oral and intravenous PK in CD-1 mice (mesylate salt), blood
Assay type: in vivo
Settings: male, CD-1, mouse, whole blood; oral 50 mg/kg

{"compound": "CC(C)C[C@@H]1NCCN([C@@H](CC(C)C)C(=O)N2CCC3(C[C@@H]2C)OCC(CN2CCCC2)CO3)C1=O (stereo partly shown)", "Tmax": "40.2 min"}

---

Experiment: 14-day daily oral repeated-dose DRF study in cynomolgus monkeys (mesylate salt)
Assay type: in vivo
Conditions: both sexes, cynomolgus monkey, plasma, po, 0.5 mg/kg, 0.5 mg/kg (Gr. 1), Day 1

{"molecule": "CC(C)C[C@@H]1NCCN([C@@H](CC(C)C)C(=O)N2CCC3(C[C@@H]2C)OCC(CN2CCCC2)CO3)C1=O (stereo partly shown)", "Tmax / h": 1.5}

---

Test: 28-day once weekly oral repeated-dose DRF study in CD-1 mice (mesylate salt), plasma
Assay type: in vivo
Details: male, CD-1, mouse, plasma, po; 300 mg/kg/week, 2nd dose

{"compound": "CC(C)C[C@@H]1NCCN([C@@H](CC(C)C)C(=O)N2CCC3(C[C@@H]2C)OCC(CN2CCCC2)CO3)C1=O (stereo partly shown)", "half-life": "4.1 h"}

---

Assay: 5-day daily oral repeated-dose pilot study in cynomolgus monkeys (mesylate salt)
Assay type: in vivo
Settings: both sexes, cynomolgus monkey, serum, po, 12 mg/kg/day, Day 5; read-out: Cmax

{"compound": "CC(C)C[C@@H]1NCCN([C@@H](CC(C)C)C(=O)N2CCC3(C[C@@H]2C)OCC(CN2CCCC2)CO3)C1=O (stereo partly shown) [Compound 1]", "Cmax (ng/mL)": 72}
